Molecular target: SERT (Homo sapiens, UniProt P31645)
Sequence (P31645 whole entry): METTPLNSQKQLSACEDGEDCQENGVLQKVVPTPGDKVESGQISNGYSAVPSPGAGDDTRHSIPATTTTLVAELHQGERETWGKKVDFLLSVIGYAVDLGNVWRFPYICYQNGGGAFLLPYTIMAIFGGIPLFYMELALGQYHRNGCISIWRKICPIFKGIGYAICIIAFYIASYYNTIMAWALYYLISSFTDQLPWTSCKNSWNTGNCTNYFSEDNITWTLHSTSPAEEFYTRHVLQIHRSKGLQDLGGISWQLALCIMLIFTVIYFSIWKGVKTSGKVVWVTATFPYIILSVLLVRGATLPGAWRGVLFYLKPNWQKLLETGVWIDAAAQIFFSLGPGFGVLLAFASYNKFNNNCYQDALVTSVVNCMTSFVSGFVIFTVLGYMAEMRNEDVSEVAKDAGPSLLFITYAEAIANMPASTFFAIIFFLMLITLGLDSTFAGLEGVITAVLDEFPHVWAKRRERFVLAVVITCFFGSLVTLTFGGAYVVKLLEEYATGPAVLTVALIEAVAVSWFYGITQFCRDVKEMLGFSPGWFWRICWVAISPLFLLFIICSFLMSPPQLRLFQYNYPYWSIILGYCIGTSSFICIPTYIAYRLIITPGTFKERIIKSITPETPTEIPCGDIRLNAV
Test: Uptake into HEK293 cells overexpressing SERT (uptake ratio and concentration-dependent uptake);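 on Uptake Ratio by Transporter SERT: ratio of uptake in SERT cells over empty-vector control cells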
Class field: derived from Uptake Ratio by Transporter SERT; ranges bottom bin (below 2), middle bin (2 to below 4), top bin (4 or more)

NCCc1c[nH]c2ccccc12 [Tryptamine]	top bin

Assign a category based on measured Uptake Ratio by Transporter SERT for CNCC(O)c1ccc(O)cc1 (centres unmarked) [Synephrine] and give only the class name.
bottom bin

Try this compound too: NCC(O)c1ccccc1 (centres unmarked) [Bisnorephedrine]
bottom bin

Try this compound too: NC1CC1c1ccccc1 (centres unmarked) [Tranylcypromin, reference compound]
middle bin

###

Catalogue of Clint ± SEM values
Molecular target: UniProt Q01959
Sequence (Q01959 whole entry): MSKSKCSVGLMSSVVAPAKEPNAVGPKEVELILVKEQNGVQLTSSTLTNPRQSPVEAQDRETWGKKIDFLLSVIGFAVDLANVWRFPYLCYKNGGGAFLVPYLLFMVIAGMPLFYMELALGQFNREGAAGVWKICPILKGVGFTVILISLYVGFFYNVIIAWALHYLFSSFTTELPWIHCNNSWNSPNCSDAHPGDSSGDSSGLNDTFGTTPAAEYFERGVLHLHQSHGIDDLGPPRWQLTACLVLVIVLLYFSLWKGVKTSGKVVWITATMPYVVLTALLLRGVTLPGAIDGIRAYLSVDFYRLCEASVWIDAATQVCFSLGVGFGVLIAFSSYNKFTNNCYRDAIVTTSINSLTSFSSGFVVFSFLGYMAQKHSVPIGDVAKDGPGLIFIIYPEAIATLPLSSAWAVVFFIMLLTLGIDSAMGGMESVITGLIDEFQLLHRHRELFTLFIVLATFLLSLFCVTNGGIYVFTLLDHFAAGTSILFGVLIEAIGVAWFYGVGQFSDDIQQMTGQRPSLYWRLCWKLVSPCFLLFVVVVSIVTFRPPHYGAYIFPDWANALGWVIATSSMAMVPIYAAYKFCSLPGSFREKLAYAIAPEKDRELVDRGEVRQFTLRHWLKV
Assay: Uptake into HEK293 cells overexpressing DAT (uptake ratio and concentration-dependent uptake)
Settings: intrinsic clearance, quotient of vmax and Km

Examples from the recorded data:
NCCc1ccc(O)c(O)c1	78.9 mL × g Protein^−1 × min^−1
NC(N)=NCc1cccc(I)c1 [mIBG, meta-iodobenzylguanidine, reference compound]	229 ± 33.8 mL × g Protein^−1 × min^−1
NCCc1ccccc1	2.1 mL × g Protein^−1 × min^−1

So what's the measured Clint ± SEM for this one? NCCc1c[nH]c2ccc(O)cc12
77.39 mL × g Protein^−1 × min^−1

###

Target: SERT (Homo sapiens)
Assay: Uptake into HEK293 cells overexpressing SERT (uptake ratio and concentration-dependent uptake)
Conditions: SERT; intrinsic clearance, quotient of vmax and Km
assay_endpoint: Clint ± SEM

Examples from the recorded data:
CNCCc1c[nH]c2ccc(O)cc12	337.7 mL × g Protein^−1 × min^−1
CN[C@@H]1CCc2[nH]c3ccc(C(N)=O)cc3c2C1 [(R)-Frovatriptan, reference compound]	38.48 mL × g Protein^−1 × min^−1
NCCc1c[nH]c2ccccc12	22.0 mL × g Protein^−1 × min^−1
NCCc1c[nH]c2ccc(O)cc12	256.9 mL × g Protein^−1 × min^−1

Shifting focus to the compound that follows.
So what's the measured Clint ± SEM for this one? NC(N)=NCc1cccc(I)c1 [mIBG, meta-iodobenzylguanidine, reference compound]
38.2 ± 25.9 mL × g Protein^−1 × min^−1

###

Molecular target: SERT (Homo sapiens, UniProt P31645)
Test: Uptake into HEK293 cells overexpressing SERT (uptake ratio and concentration-dependent uptake);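 further: incubation at 37 °C, intracellular compound quantified by HPLC-MS/MS after cell lysis, uptake normalized to total protein measured by bicinchoninic acid assay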;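 on Uptake Ratio by Transporter SERT: ratio of uptake in SERT cells over empty-vector control cells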
assay_endpoint: Uptake Ratio by Transporter SERT
Output: the number by itself.

Examples from the recorded data:
CN(C)CCc1ccc(O)cc1	2.02
NCc1ccc(O)cc1 [4-Hydroxybenzylamine]	1.55
NCCc1ccccc1	1.71
CNCCc1ccc(O)cc1	2.46
CNCCc1ccccc1	2.29

So what's the measured Uptake Ratio by Transporter SERT for this one? C[n+]1ccc(-c2ccccc2)cc1 [MPP+, reference compound]
50.42

Try this compound too: NCCc1cccc(O)c1
3.08

###

Biological target: SERT (Homo sapiens)
Experiment: Uptake into HEK293 cells overexpressing SERT (uptake ratio and concentration-dependent uptake)
assay_endpoint: Uptake Ratio by Transporter SERT
Output: the number by itself.

Examples from the recorded data:
CNCC(O)c1ccc(O)c(OC)c1 (stereo not shown)	1.97
CNCCc1ccc(O)c(O)c1 [Deoxyepinephrine]	13.89
COc1ccc(CCN)cc1O	3.86
COc1ccc2[nH]cc(CCN)c2c1	3.46
COc1cc(C(O)CN)ccc1O (stereo not shown)	1.91
COc1cc(CCN)ccc1O	4.45

Can you look up Uptake Ratio by Transporter SERT on SERT (Homo sapiens) for CNCC(O)c1ccccc1 (stereo not shown) ?
2.26
